Cited source: PubChem BioAssay AID504660

target: D(1A) dopamine receptor (Homo sapiens); assay: Allosteric Agonists of the Human D1 Dopamine Receptor: qHTS; conditions: HEK293 T-REx D1 cells, calcium flux, agonist mode; at 2 µM
About 3,700 (1%) of roughly 360,000 compounds were called active. Cut-off read from the data, not from the text of the source: active = activation above about 30%; inactive = the rest. For the sample, actives were picked, then their nearest neighbours and some compounds at random.
Labels: active, inactive

| compound | assayTarget | answerLabel |
| --- | --- | --- |
| CCN1C(=O)C(=Cc2c(C)n(CC(=O)NCC3CCCO3)c3ccccc23)C(=O)N(CC)C1=S (stereo not given) | D(1A) dopamine receptor (Homo sapiens) | inactive |
| CC(C)c1ccc(O)c(CN2CCN(c3ccccc3)CC2)c1 | D(1A) dopamine receptor (Homo sapiens) | active |
| CN(C)c1nc(N(C)C)nc(N(C#N)CCCl)n1 | D(1A) dopamine receptor (Homo sapiens) | inactive |
| COc1ccc(N=Cc2c(O)n(C)c(=O)[nH]c2=O)cc1 | D(1A) dopamine receptor (Homo sapiens) | inactive |
| Cc1ccc(NC(=O)N(Cc2ccc3c(c2)OCO3)C2CCN(Cc3ccccc3)CC2)cc1F | D(1A) dopamine receptor (Homo sapiens) | inactive |
| COC(=O)C(c1ccccc1)N1CCCCCC1 (stereo not given) | D(1A) dopamine receptor (Homo sapiens) | active |
| COC(=O)N1C(c2ccccc2)C1c1ccccc1 (stereo not given) | D(1A) dopamine receptor (Homo sapiens) | inactive |
| NC(=O)Nc1cccc(C(F)(F)F)c1 | D(1A) dopamine receptor (Homo sapiens) | inactive |
| Cc1cc2ccccn2c1C(C[N+](=O)[O-])c1c(F)cccc1Cl (stereo not given) | D(1A) dopamine receptor (Homo sapiens) | inactive |
| COc1ccc(C(=O)C2CN(C)CC2C(=O)c2ccc(OC)cc2)cc1 (stereo not given) | D(1A) dopamine receptor (Homo sapiens) | inactive |
| Cc1ccc(-n2c(/C=C/c3cccc(C(F)(F)F)c3)nc3ccccc3c2=O)cc1 | D(1A) dopamine receptor (Homo sapiens) | inactive |
| Oc1cc2c(cc1CN1CCN(c3ccccc3)CC1)OCO2 | D(1A) dopamine receptor (Homo sapiens) | inactive |
| COc1ccc(CNCCc2c[nH]c3ccccc23)cc1OC | D(1A) dopamine receptor (Homo sapiens) | inactive |
| NCC(O)c1ccc(O)cc1 (stereo not given) | D(1A) dopamine receptor (Homo sapiens) | inactive |
| CCN1CCN(Cc2cc(OC)c3c(c2)OCO3)CC1 | D(1A) dopamine receptor (Homo sapiens) | inactive |
